Kindly state IC50 for each of the entries shown.
EXPERIMENTAL_SYSTEM: CDK1/cyclin B
ASSAY_DETAILS: CDK1/cyclin B kinase assay (histone H1, P81 phosphocellulose)
SETUP_CONDITIONS: 15 μM ATP; cell '− (x)' = no inhibitory activity detected, x = highest concentration tested

Study these solved cases before continuing.
MOLECULE: COc1cc2c(cc1O)oc(=O)c1c2c(-c2ccc(OC)c(OC)c2)c2c3cc(OC)c(OC)cc3ccn21 [Compound 11, lamellarin 5]
RECORDED_RESULT: > 10 µM
//
MOLECULE: COc1ccc(-c2c3c4cc(OC)c(O)cc4oc(=O)c3n3ccc4cc(O)c(OC)cc4c23)cc1O [Compound 6, lamellarin N]
RECORDED_RESULT: 0.07 µM

# context switch: different molecule, same IC50
Give its IC50 value. Item: O=c1oc2cc(O)c(O)cc2c2c(-c3ccc(O)c(O)c3)c3n(c12)CCc1cc(O)c(O)cc1-3 [Compound 5, di-H-lamellarin H] > 10 µM

----------
For each of the compounds below, state its pIC50.
EXPERIMENTAL_SYSTEM: DYRK1A (Rattus norvegicus, UniProt Q63470)
ASSAY_DETAILS: DYRK1A kinase assay (myelin basic protein)
pIC50: −log10 of the molar value.

Examples from the recorded data:
MOL_SMILES: COc1cc(-c2c3n(c4c(=O)oc5cc(O)c(OC)cc5c24)CCc2c-3cc(OC)c(OC)c2O)ccc1O
QUANTITY_NAME: pIC50
RECORDED_RESULT: < 5.00
--
MOL_SMILES: COc1ccc(-c2c3c4cc5c(cc4oc(=O)c3n3ccc4cc(OC)c(OC)cc4c23)OCO5)cc1OC
QUANTITY_NAME: pIC50
RECORDED_RESULT: < 5.00
--
MOL_SMILES: O=c1oc2cc(O)c(O)cc2c2c(-c3ccc(O)c(O)c3)c3c4cc(O)c(O)cc4ccn3c12
QUANTITY_NAME: pIC50
RECORDED_RESULT: < 5.00
--
MOL_SMILES: COc1ccc(-c2c3c4ccccc4oc(=O)c3n3ccc4cc(OC)c(OC)cc4c23)cc1OC
QUANTITY_NAME: pIC50
RECORDED_RESULT: < 5.00
--
MOL_SMILES: COc1cccc(-c2c3c4cc(OC)c(O)cc4oc(=O)c3n3ccc4cc(O)c(OC)cc4c23)c1
QUANTITY_NAME: pIC50
RECORDED_RESULT: < 5.00

// query pIC50 value for entry `O=c1oc2ccccc2c2c(-c3ccc(O)c(O)c3)c3c4cc(O)c(O)cc4ccn3c12` < 5.00

----------
EXPERIMENTAL_SYSTEM: CDK1/cyclin B
ASSAY_DETAILS: CDK1/cyclin B kinase assay (histone H1, P81 phosphocellulose)
SETUP_CONDITIONS: 15 μM ATP; cell '− (x)' = no inhibitory activity detected, x = highest concentration tested
QUANTITY_NAME: IC50

COMPOUND: O=c1oc2ccccc2c2c(-c3ccc(O)c(O)c3)c3c4cc(O)c(O)cc4ccn3c12 [Compound 15, lamellarin 9]
EXPERIMENTAL_SYSTEM: CDK1/cyclin B
RECORDED_RESULT: > 10 µM

COMPOUND: COc1cc(-c2c3n(c4c(=O)oc5cc(O)c(OC)cc5c24)CCc2c-3cc(OC)c(OC)c2O)ccc1O [Compound 22, lamellarin K]
EXPERIMENTAL_SYSTEM: CDK1/cyclin B
RECORDED_RESULT: > 10 µM

Any idea what IC50 was measured for COc1ccc(-c2c3c4cc5c(cc4oc(=O)c3n3ccc4cc(OC)c(OC)cc4c23)OCO5)cc1OC [Compound 17, lamellarin 12] ? > 10 µM
